Test system: Acinetobacter lwoffii
Assay: Antibacterial activity against […] expressing Acinetobacter lwoffii AI.88-483 after 24 hrs by geometric microdilution method
Assay type: functional
Details: AI.88-483, 24 h
measurement name: MIC

NCC[C@H](O)C(=O)N[C@@H]1C[C@H](N)[C@@H](O[C@H]2O[C@H](CN)[C@@H](O)[C@H](O)[C@H]2O)[C@H](O)[C@H]1O[C@H]1O[C@H](CO)[C@@H](O)[C@H](N)[C@H]1O [AMIKACIN] | > 128 µg/mL

Please give MIC for each item listed below.
1. NC[C@H]1O[C@H](O[C@H]2[C@H](O)[C@@H](O[C@H]3O[C@H](CO)[C@@H](O)[C@H](N)[C@H]3O)[C@H](N)C[C@@H]2N)[C@H](N)C[C@@H]1O [TOBRAMYCIN]
2. NC[C@H]1O[C@H](O[C@H]2[C@H](OCc3ccc4ccccc4c3)[C@@H](O)[C@H](N)C[C@@H]2N)[C@H](N)[C@@H](O)[C@@H]1OCc1ccc2ccccc2c1
3. NC[C@H]1O[C@H](O[C@H]2[C@H](OCc3ccc4ccccc4c3)[C@@H](OCc3ccc4ccccc4c3)[C@H](N)C[C@@H]2N)[C@H](N)[C@@H](OCc2ccc3ccccc3c2)[C@@H]1OCc1ccc2ccccc2c1
4. NC[C@@H]1O[C@H](O[C@H]2[C@@H](O)[C@H](O[C@@H]3[C@@H](O)[C@H](N)C[C@H](N)[C@H]3O[C@H]3O[C@H](CN)[C@@H](O)[C@H](O)[C@H]3N)O[C@@H]2CO)[C@H](N)[C@@H](O)[C@@H]1O [FRAMYCETIN]

1: 1 µg/mL; 2: > 128 µg/mL; 3: > 128 µg/mL; 4: > 128 µg/mL
